STUDY_SYSTEM: T1, 4H2948-AA
T1 chain: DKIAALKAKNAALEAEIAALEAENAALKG
MEASUREMENT_PROTOCOL: two-hybrid library CCmax;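 further: natural log of median RNA to DNA barcode read ratio; higher means stronger binding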
DETAILS: mean of both orientations
PROPERTY: interaction score

Solved cases (8 shown):
Input line: Data request, read-out interaction score, for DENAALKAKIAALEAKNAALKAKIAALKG [4H1854-AA]
Output line: -0.756

Input line: Data request, read-out interaction score, for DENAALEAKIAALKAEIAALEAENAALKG [4H1348-AA]
Output line: -1.13

Input line: Data request, read-out interaction score, for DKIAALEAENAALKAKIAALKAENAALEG [4H2283-AA]
Output line: 0.785

Input line: Data request, read-out interaction score, for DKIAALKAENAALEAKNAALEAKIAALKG [4H2742-AA]
Output line: -0.899

Input line: Data request, read-out interaction score, for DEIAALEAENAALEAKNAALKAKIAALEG [4H189-AA]
Output line: -1.02

Input line: Data request, read-out interaction score, for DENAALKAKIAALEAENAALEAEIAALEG [4H1809-AA]
Output line: -1.16

Input line: Data request, read-out interaction score, for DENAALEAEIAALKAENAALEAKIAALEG [4H1109-AA]
Output line: -1.16

Input line: Data request, read-out interaction score, for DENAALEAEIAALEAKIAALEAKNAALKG [4H1064-AA]
Output line: -0.884

P: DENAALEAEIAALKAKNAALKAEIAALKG [4H1146-AA]
Q: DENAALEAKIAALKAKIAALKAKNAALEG [4H1391-AA]
R: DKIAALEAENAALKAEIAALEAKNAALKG [4H2248-AA]
S: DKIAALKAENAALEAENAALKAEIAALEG [4H2713-AA]
T: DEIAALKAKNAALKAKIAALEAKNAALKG [4H1000-AA]
Input line: Sort these binders on interaction score so the largest reading comes first. Give the labels in the order requested.
Output line: T, R, P, Q, S
(T: 0.224, R: -0.353, P: -0.764, Q: -1.19, S: -1.84)
